These data points were gathered from patent US20200317776A1.

Target: human TREM2/DAP12 fusion protein (human, UniProt O43914 41-113, limits assumed)
Sequence (O43914 other isoform, or with tags, fused parts or gaps limits assumed): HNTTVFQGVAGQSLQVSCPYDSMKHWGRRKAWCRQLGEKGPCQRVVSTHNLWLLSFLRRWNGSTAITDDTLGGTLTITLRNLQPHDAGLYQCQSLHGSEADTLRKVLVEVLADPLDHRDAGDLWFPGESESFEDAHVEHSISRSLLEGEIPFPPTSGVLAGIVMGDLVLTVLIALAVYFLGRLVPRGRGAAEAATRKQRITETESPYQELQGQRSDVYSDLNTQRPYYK
Experiment: cell-based or functional assay
Outcome measure: luciferase activation, soluble IgG, EC50 (nM)
Report the figure in nM without appending any unit label.

Which luciferase activation, soluble IgG, EC50 reading was recorded for the binder AL2p-h77 (antibody, human IgG1, V domains shown, humanized, human IgG1; Fab and IgG formats under one id; also called A2p-h77) VH: QVQLVQSGAEVKKPGASVKVSCKASGYAFSSSWMNWVRQAPGQRLEWIGRIYPGDGDTNYAQKFQGRVTITADTSASTAYMELSSLRSEDTAVYYCARLLRNQPGESYAMDYWGQGTLVTVSS VL: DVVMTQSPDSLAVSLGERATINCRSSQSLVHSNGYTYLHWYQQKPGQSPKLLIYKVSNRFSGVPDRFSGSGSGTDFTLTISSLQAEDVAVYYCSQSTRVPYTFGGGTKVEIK ?
20.1

Queued: AL2p-5 (antibody, V domains shown, AL2p-h50 variant; Fab and IgG formats under one id; also called AL2-5) VH: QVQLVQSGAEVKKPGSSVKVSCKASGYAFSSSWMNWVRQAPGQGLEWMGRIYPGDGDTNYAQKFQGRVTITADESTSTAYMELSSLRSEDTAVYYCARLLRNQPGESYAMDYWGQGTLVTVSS VL: DVVMTQTPLSLSVTPGQPASISCRSSQSLVHSNRYTYLHWYLQKPGQSPQLLIYKVSNRFSGVPDRFSGSGSGTDFTLKISRVEAEDVGVYYCSQSTRVPYTFGQGTKLEIK
38.1

Same lookup for AL2p-h50 (antibody, human IgG1, V domains shown, humanized, human IgG1; Fab and IgG formats under one id) VH: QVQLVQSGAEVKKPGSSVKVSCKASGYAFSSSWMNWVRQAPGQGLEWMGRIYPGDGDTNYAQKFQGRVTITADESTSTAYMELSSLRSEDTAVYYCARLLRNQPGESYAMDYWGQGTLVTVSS VL: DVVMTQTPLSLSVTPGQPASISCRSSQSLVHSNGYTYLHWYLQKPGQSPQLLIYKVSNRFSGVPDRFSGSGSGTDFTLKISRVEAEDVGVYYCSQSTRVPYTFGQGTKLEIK , please.
63.1

Then AL2p-6 (antibody, V domains shown, AL2p-h50 variant; Fab and IgG formats under one id) VH: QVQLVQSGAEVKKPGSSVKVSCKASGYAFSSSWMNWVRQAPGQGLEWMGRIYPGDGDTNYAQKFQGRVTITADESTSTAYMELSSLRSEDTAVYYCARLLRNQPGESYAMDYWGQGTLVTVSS VL: DVVMTQTPLSLSVTPGQPASISCRSSQSLVHSNWYTYLHWYLQKPGQSPQLLIYKVSNRFSGVPDRFSGSGSGTDFTLKISRVEAEDVGVYYCSQSTRVPYTFGQGTKLEIK ?
38.6

Input AL2p-59 (antibody, V domains shown, Fab and IgG formats under one id) VH: QVQLVQSGAEVKKPGSSVKVSCKASGYAFSSHWMNWVRQAPGQGLEWMGRIYPGEGQTNYAQKRQGRVTITADESTSTAYMELSSLRSEDTAVYYCARLLRNQPGESYAMDYWGQGTLVTVSS VL: GVVMTQTPLSLSVTPGQPASISCRTSQSLVHSNQYTYLHWYLQKPGQSPQLLIYKVSNRVSGVPDRFSGSGSGTDFTLKISRVEAEDVGVYYCSQSTRVPYTFGQGTKLEIK
11.2
